# test-name: Mean residence time in rat at 2 mg/kg, iv
# Type: ADME, organism-based
# Design: dose 2 mg/kg, route intravenous
# settings: in vivo

substance-smiles	MRT (h)
CC(C)(O)c1ccc(-c2cnc3c(n2)N(CC2CCOCC2)CC(=O)N3)cn1	2.7

----------
# test-name: AUC (0 to infinity) in rat at 5 mg/kg, po
# Type: ADME, organism-based
# Parameters: time infinity, dose 5 mg/kg, route oral
# settings: plasma

substance-smiles	AUC(0-inf) / µM·h
CC(C)(O)c1ccc(-c2cnc3c(n2)N(CC2CCOCC2)CC(=O)N3)cn1	28

----------
# test-name: Clearance in rat at 2 mg/kg, iv
# Type: ADME, organism-based
# Set-up: dose 2 mg/kg, route intravenous
# settings: in vivo
metric: clearance (L/h/kg)

substance-smiles	quantitative-result
CC(C)(O)c1ccc(-c2cnc3c(n2)N(CC2CCOCC2)CC(=O)N3)cn1	0.486

----------
# test-name: Plasma protein binding in CB17 SCID mouse xenografted with human PC3 cells at 30 mg/kg, po qd after 24 hrs
# Assay type: ADME, organism-based, PC-3
# Parameters: dose 30 mg/kg, route oral
# settings: read-out: PPB (converted)
metric: fraction unbound at 24 h

substance-smiles	metric	quantitative-result
CC(C)(O)c1ccc(-c2cnc3c(n2)N(CC2CCOCC2)CC(=O)N3)cn1	fraction unbound at 24 h	0.35

----------
# test-name: Drug uptake in tumor of CB17 SCID mouse xenografted with human PC3 cells at 30 mg/kg, po qd at 8 hrs
# Format: ADME, organism-based, Neoplasm, PC-3
# Design: dose 30 mg/kg, route oral
# settings: read-out: Drug uptake
metric: concentration at 8 h (nM)

substance-smiles	metric	unit-name	quantitative-result
CC(C)(O)c1ccc(-c2cnc3c(n2)N(CC2CCOCC2)CC(=O)N3)cn1	concentration at 8 h	nM	1760

----------
# test-name: Drug uptake in tumor of CB17 SCID mouse xenografted with human PC3 cells at 30 mg/kg, po qd at 4 hrs
# Format: ADME, organism-based, Neoplasm, PC-3
# Parameters: dose 30 mg/kg, route oral
# settings: read-out: Drug uptake

substance-smiles	concentration at 4 h, nM
CC(C)(O)c1ccc(-c2cnc3c(n2)N(CC2CCOCC2)CC(=O)N3)cn1	2870
